- System: E. coli DH1
- TEST NAME: Isopentenol production in E. coli via IPP-bypass MVA pathway (GC-FID)
- Type: cell-based, Escherichia coli
- PROTOCOL CONDITIONS: 48 hr
PROPERTY NAME: 48 hr Titer (isopentenol)

Look up and report measured 48 hr Titer (isopentenol) for this entry: Saccharomyces cerevisiae diphosphomevalonate decarboxylase (PMDsc, SEQ ID NO: 1) variant I145A (Saccharomyces cerevisiae S288C; I145A) (protein, His tag; made in house; host or cells: E. coli Rosetta (DE3)) MTVYTASVTAPVNIATLKYWGKRDTKLNLPTNSSISVTLSQDDLRTLTSAATAPEFERDTLWLNGEPHSIDNERTQNCLRDLRQLRKEMESKDASLPTLSQWKLHIVSENNFPTAAGLASSAAGFAALVSAIAKLYQLPQSTSEASRIARKGSGSACRSLFGGYVAWEMGKAEDGHDSMAVQIADSSDWPQMKACVLVVSDIKKDVSSTQGMQLTVATSELFKERIEHVVPKRFEVMRKAIVEKDFATFAKETMMDSNSFHATCLDSFPPIFYMNDTSKRIISWCHTINQFYGETIVAYTFDAGPNAVLYYLAENESKLFAFIYKLFGSVPGWDKKFTTEQLEAFNHQFESSNFTARELDLELQKDVARVILTQVGSGPQETNESLIDAKTGLPKE 623 (140) mg/L

Reference source for all entries: patent US11001838B2
